Target: human D1R (Homo sapiens)
Sequence (P21728 whole entry): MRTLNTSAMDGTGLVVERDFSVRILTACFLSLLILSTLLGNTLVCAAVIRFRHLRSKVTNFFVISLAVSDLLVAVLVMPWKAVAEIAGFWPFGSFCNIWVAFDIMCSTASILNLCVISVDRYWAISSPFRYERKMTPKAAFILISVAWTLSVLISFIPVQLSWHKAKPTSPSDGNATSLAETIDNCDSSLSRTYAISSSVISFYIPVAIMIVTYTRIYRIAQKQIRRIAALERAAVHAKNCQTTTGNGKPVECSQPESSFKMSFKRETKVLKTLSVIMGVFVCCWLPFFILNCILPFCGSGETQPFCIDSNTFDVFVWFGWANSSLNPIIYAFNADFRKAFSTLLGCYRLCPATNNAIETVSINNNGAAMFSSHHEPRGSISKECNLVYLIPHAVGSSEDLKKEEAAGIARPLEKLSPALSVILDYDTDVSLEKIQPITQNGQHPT
Assay: D1 cAMP accumulation assay (D1R-HEK293 cells, DiscoverX HitHunter)
Details: fold change of dopamine EC50, 50 μM compound
Labelling: D1 cAMP: DA + 50 μM PAM, Fold Chg EC50 reported below 2 becomes Yes; at or above becomes No.

>  <compound>
CC(C)(C)C1CCc2c(sc(NC(=O)c3ccncc3)c2C(N)=O)C1 (stereo not drawn) [Compound 28]

>  <group>
No

$$$$
>  <compound>
CC(C)(C)C1CCc2c(sc(NC(=O)c3cncc(Br)c3)c2C(N)=O)C1 (stereo not drawn) [Compound 29]

>  <group>
Yes

$$$$
>  <compound>
COc1ccc(-n2c(CC3CCCCC3)nc3c(c(=O)c4ccccc4n3C)c2=O)cc1 [Compound 16]

>  <group>
Yes

$$$$

Prompt line: is_below(D1 cAMP: DA + 50 μM PAM, Fold Chg EC50, 2) for CC1CCc2c(sc(NC(=O)c3cccnc3)c2C(N)=O)C1 (stereo not drawn) [Compound 35] ?
Response line: Yes

Prompt line: is_below(D1 cAMP: DA + 50 μM PAM, Fold Chg EC50, 2) for CC(C)(C)C1CCc2c(sc(NC(=O)c3cccnc3)c2C(N)=O)C1 (stereo not drawn) [Compound 38] ?
Response line: No

Prompt line: is_below(D1 cAMP: DA + 50 μM PAM, Fold Chg EC50, 2) for CC1CCc2c(sc(NC(=O)c3ccccn3)c2C(N)=O)C1 (stereo not drawn) [Compound 37] ?
Response line: Yes

----------
Biological target: D5 (Homo sapiens, UniProt P21918)
Sequence (P21918 whole entry): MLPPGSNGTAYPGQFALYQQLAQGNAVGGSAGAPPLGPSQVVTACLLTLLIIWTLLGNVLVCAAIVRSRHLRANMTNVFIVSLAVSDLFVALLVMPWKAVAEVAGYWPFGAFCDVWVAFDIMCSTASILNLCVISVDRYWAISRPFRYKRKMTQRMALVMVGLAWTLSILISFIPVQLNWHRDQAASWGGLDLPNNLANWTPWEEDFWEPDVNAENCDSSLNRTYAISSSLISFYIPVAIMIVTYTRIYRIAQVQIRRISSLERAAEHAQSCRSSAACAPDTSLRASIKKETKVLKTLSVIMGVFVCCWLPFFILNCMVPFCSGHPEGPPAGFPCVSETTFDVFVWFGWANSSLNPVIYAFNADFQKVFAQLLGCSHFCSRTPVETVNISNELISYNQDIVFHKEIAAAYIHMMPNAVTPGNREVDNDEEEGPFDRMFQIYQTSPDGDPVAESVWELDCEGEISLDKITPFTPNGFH
Test: D5R β-arrestin recruitment assay (DiscoverX PathHunter, CHO cells)
Assay type: cell-based
Set-up: host or cells: CHO-K1
Conditions: Table 6; 50 μM compound
Labelling: Dopamine D5-β-arrestin Assay: DA + 50 μM PAM, Fold Change EC50 reported below 5 becomes class 1; at or above becomes class 0.

Use the examples below as a reference point.
>  <chemical.smiles>
CCCc1nc2c(c(=O)c3ccccc3n2C)c(=O)n1C1CCCCCC1

>  <group>
class 0

$$$$
>  <chemical.smiles>
Cn1c2ccccc2c(=O)c2c(=O)n(-c3ccccc3)c(-c3ccc(C(C)(C)C)cc3)nc21

>  <group>
class 0

$$$$
>  <chemical.smiles>
Cn1c2ccccc2c(=O)c2c(=O)n(-c3ccccc3)c(C3CCCCC3)nc21

>  <group>
class 1

$$$$

Prompt line: is_below(Dopamine D5-β-arrestin Assay: DA + 50 μM PAM, Fold Change EC50, 5) for "CCCc1nc2c(c(=O)c3ccccc3n2C)c(=O)n1-c1cc(C)cc(C)c1" ?
Response line: class 1

Prompt line: is_below(Dopamine D5-β-arrestin Assay: DA + 50 μM PAM, Fold Change EC50, 5) for "Cn1c2ccccc2c(=O)c2c(=O)n(Cc3ccccc3)c(-c3ccc(F)cc3)nc21" ?
Response line: class 0

Prompt line: is_below(Dopamine D5-β-arrestin Assay: DA + 50 μM PAM, Fold Change EC50, 5) for "CC(C)Cn1c(-c2ccco2)nc2c(c(=O)c3ccccc3n2C)c1=O" ?
Response line: class 0

Prompt line: is_below(Dopamine D5-β-arrestin Assay: DA + 50 μM PAM, Fold Change EC50, 5) for "CCCCCc1nc2c(c(=O)c3ccccc3n2C)c(=O)n1C1CCCCCC1" ?
Response line: class 1

Prompt line: is_below(Dopamine D5-β-arrestin Assay: DA + 50 μM PAM, Fold Change EC50, 5) for "Cn1c2ccccc2c(=O)c2c(=O)n(C3CCCCCC3)c(C3CCCCC3)nc21" ?
Response line: class 1

Prompt line: is_below(Dopamine D5-β-arrestin Assay: DA + 50 μM PAM, Fold Change EC50, 5) for "CC(C)c1nc2c(c(=O)c3ccccc3n2C)c(=O)n1-c1ccc(F)cc1" ?
Response line: class 1

----------
Target: D5 (Homo sapiens, UniProt P21918)
Assay: D5R β-arrestin recruitment assay (DiscoverX PathHunter, CHO cells)
Type: cell-based
Parameters: host or cells: CHO-K1
Settings: 50 μM compound
observation.type: fold change of dopamine EC50 for β-arrestin recruitment to D5R (fold)
Numbers only, in fold.

Completed entries (count: 3):
>  <chemical.smiles>
CC(C)Cc1nc2c(c(=O)c3ccccc3n2C)c(=O)n1-c1ccc(Cl)cc1

>  <system.name>
D5 (Homo sapiens, UniProt P21918)

>  <unit.abbrev>
fold

>  <reported.result>
0.8

$$$$
>  <chemical.smiles>
CC(C)Cc1nc2c(c(=O)c3ccccc3n2C)c(=O)n1-c1cccc(Cl)c1

>  <system.name>
D5 (Homo sapiens, UniProt P21918)

>  <unit.abbrev>
fold

>  <reported.result>
0.8

$$$$
>  <chemical.smiles>
Cc1ccc(-n2c(CC(C)C)nc3c(c(=O)c4ccccc4n3C)c2=O)cc1

>  <system.name>
D5 (Homo sapiens, UniProt P21918)

>  <unit.abbrev>
fold

>  <reported.result>
1.3

$$$$

Switching to the query record.
Prompt line: I am curious: what fold change of dopamine EC50 for β-arrestin recruitment to D5R value has been reported for "Cn1c2ccccc2c(=O)c2c(=O)n(-c3ccccc3)c(C3CCCCC3)nc21" ?
Response line: 2.5

----------
Target: D5 (Homo sapiens, UniProt P21918)
Test: D5R β-arrestin recruitment assay (DiscoverX PathHunter, CHO cells)
Type: cell-based
Design: host or cells: CHO-K1
Conditions: fold change of dopamine EC50, 50 μM compound
For each of the molecules below, state its D5 Beta-Arrestin: DA + 50 μM PAM, Fold Change EC50.
One number for each entry.

>  <molecule>
Cn1c2ccccc2c(=O)c2c(=O)n(-c3ccccc3)c(CC3CCCCC3)nc21 [Compound 20]

>  <reported.result>
2.38

$$$$

Here are 3 molecules. What values of D5 Beta-Arrestin: DA + 50 μM PAM, Fold Change EC50 were reported for them?
1. NC(=O)c1c(NC(=O)c2ccccn2)sc2c1CCCC2 [Compound 36]
2. CC(C)(C)C1CCc2c(sc(NC(=O)c3ccccn3)c2C(N)=O)C1 (stereo not shown) [Compound 30]
3. CC1CCc2c(sc(NC(=O)c3ccc4ccccc4n3)c2C(N)=O)C1 (stereo not shown) [Compound 31]

Response line:
1. 0.26
2. 0.48
3. 0.83

----------
For each of the compounds below, state its D5 Beta-Arrestin: DA + 50 μM PAM, Fold Change EC50.
Molecular target: D5 (Homo sapiens)
Experiment: D5R β-arrestin recruitment assay (DiscoverX PathHunter, CHO cells)
Format: cell-based
Parameters: host or cells: CHO-K1
Conditions: fold change of dopamine EC50, 50 μM compound
Answers are plain numbers.

Completed entries (count: 5):
>  <compound>
CC(C)Cc1nc2c(c(=O)c3ccccc3n2C)c(=O)n1-c1cccc(Cl)c1 [Compound 7]

>  <reported.result>
0.80

$$$$
>  <compound>
CC(C)Cc1nc2c(c(=O)c3ccccc3n2C)c(=O)n1-c1ccccc1 [Compound 21]

>  <reported.result>
4.56

$$$$
>  <compound>
Cn1c2ccccc2c(=O)c2c(=O)n(-c3ccc(Cl)cc3)c(C3CCCCC3)nc21 [Compound 3]

>  <reported.result>
2.03

$$$$
>  <compound>
CC(C)(C)C1CCc2c(sc(NC(=O)c3ccc4ccccc4n3)c2C(N)=O)C1 (stereo not drawn) [Compound 32]

>  <reported.result>
0.92

$$$$
>  <compound>
Cn1c2ccccc2c(=O)c2c(=O)n(-c3ccccc3)c(C3CCCCC3)nc21 [Compound 1]

>  <reported.result>
2.56

$$$$

Here are 4 compounds. What values of D5 Beta-Arrestin: DA + 50 μM PAM, Fold Change EC50 were reported for them?
1. Cn1c2ccccc2c(=O)c2c(=O)n(-c3ccc(Cl)cc3)c(CC3CCCCC3)nc21 [Compound 25]
2. Cc1ccc(-n2c(CC3CCCCC3)nc3c(c(=O)c4ccccc4n3C)c2=O)cc1 [Compound 26]
3. COc1ccc(-n2c(CC3CCCCC3)nc3c(c(=O)c4ccccc4n3C)c2=O)cc1Cl [Compound 19]
4. CC(C)(C)C1CCc2c(sc(NC(=O)c3cncc(Br)c3)c2C(N)=O)C1 (stereo not drawn) [Compound 29]

Response line:
1: 2.25; 2: 1.15; 3: 1.29; 4: 1.68
